- SYSTEM NAME: G6PD (Homo sapiens, UniProt P11413)
- Sequence (P11413 28-515): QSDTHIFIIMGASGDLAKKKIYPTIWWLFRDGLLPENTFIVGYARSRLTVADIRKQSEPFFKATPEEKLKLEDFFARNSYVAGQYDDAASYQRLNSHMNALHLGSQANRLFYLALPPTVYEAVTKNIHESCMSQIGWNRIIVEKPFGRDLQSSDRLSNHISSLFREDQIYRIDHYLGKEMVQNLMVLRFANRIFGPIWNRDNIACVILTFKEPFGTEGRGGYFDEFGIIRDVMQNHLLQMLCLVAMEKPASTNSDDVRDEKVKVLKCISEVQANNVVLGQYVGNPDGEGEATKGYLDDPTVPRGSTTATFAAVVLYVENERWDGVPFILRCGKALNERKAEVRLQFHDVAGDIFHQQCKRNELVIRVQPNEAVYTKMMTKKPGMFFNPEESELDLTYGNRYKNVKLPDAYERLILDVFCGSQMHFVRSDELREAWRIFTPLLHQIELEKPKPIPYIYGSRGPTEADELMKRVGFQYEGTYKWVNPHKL
- ASSAY PROTOCOL: G6PD enzymatic activity by diaphorase-coupled assay
pIC50: −log10 of the molar value.
Would you kindly list pIC50 for each of these compounds?

Task: Bench note: what pIC50 did Cc1csc(Nc2ncc3c(n2)CCCC3=O)n1 show?
Result: 3.00 to 6.00

Task: Bench note: what pIC50 did N#Cc1cc(Nc2ncc3c(n2)CCCC3=O)cs1 show?
Result: > 6.00

Task: Bench note: what pIC50 did N#Cc1cc(Nc2ncc3c(n2)CCCCC3=O)cc(OCc2ccc(OC(F)(F)F)cc2)c1 show?
Result: 3.00 to 6.00

Task: Bench note: what pIC50 did N#Cc1cc(Nc2ncc3c(n2)CCCC(O)C3=O)cs1 (stereo not shown) show?
Result: > 6.00

Task: Bench note: what pIC50 did N#Cc1cc(Nc2ncc3c(n2)CCCCC3=O)cc(Oc2ccccc2)c1 show?
Result: 3.00 to 6.00

Task: Bench note: what pIC50 did N#Cc1cc(Nc2ncc3c(n2)C2CCC(C2)C3=O)cs1 (stereo not shown) show?
Result: 3.00 to 6.00

Task: Bench note: what pIC50 did N#Cc1cc(Nc2ncc3c(n2)CCC(C(F)(F)F)C3=O)cs1 (stereo not shown) show?
Result: > 6.00

Task: Bench note: what pIC50 did N#Cc1cc(Nc2ncc3c(n2)CCCC/C3=N\O)cs1 show?
Result: < 3.00

Task: Bench note: what pIC50 did COc1ccccc1COc1cc(C#N)cc(Nc2ncc3c(n2)CCCCC3=O)c1 show?
Result: > 6.00

Task: Bench note: what pIC50 did N#Cc1cc(Nc2ncc3c(n2)CCCC(C(F)(F)F)C3=O)cs1 (stereo not shown) show?
Result: > 6.00
